Measured Corn plant response rating (0 to 100 scale) of individual entries
- Tested on: corn (Zea mays)
- EXPERIMENT SUMMARY: Test A postemergence, visual injury rating
- Assay type: in vivo
- TEST CONTEXT: 125 g ai/ha, 0 is no effect, 100 is complete control
Reply: number alone, nothing else.

SMILES INPUT	NUMERIC READOUT
O=C(OCC(F)(F)C(F)(F)F)c1c(F)cccc1Oc1ncc(Cl)cn1	0
O=C(OCCC(F)(F)F)c1c(Br)cccc1Oc1ncc(Br)cn1	30

In: # input molecule: `FC(F)(F)COCc1c(Br)cccc1Oc1ncc(Cl)cn1` ; wanted: its Corn plant response rating (0 to 100 scale)
Out: 30

Origin of the recorded values: patent US11053204B2
